# Experiment notes: yeast display, Sf9 membrane polyspecificity reagent, FACS + sequencing; frameworks hold sequencing errors
Measurement type: polyreactivity (PSR sort gate)

Record excerpt, results attached:
>>> result("QVQLVESGGGLVQAGGSLRLSCAASGSIFVNNAMGWYRQAPGKERELVAAIRRGSSTNYADSVKGRFTISRDNAKNTVYLQMNSLKPEDTAVYDCAADHDDDEAQNYDYLGQGTQVTVSS")
"low polyreactivity"
>>> result("QVQLVESGGGLVQAGGSLRLSCAASGLIFKYNDMGWYRQAPGTEREFVAAISWRGGRTYYADSVKGRFTISRDNEKNTVYLQMNSLKPEDTAVYYCNAGYRIAQFPSPHIAYYGYGYWGQGTQVTVSS")
"high polyreactivity"
>>> result("QVQLVESGGGLVQAGGSLRLRCAASGRIFRLYAMGWYRQAPGKERELVAAIRSSGGSTYADSVKGRFTISRDNAKNTVYLHMNSLKPEDTAVYYCAARWGRLPEQYRYDYWGQGTQVTVSS")
"high polyreactivity"
>>> result("QDQLEESGGGLVQAGGSLRLSCASSGRIFAGYAMGWYRQAPGKERELVAAISGSGGSTYYADSVKGRFTISRDNAKNTVYLQMNSLKPEDTAVFYCNAGKTSRFQYDYWGQGTQVTVSS")
"high polyreactivity"

Challenge: // lookup polyreactivity (PSR sort gate) for "EEELVESGGGLVQAGGSLRLSCAASGSTFVSNAMGWYRQAPGKERELVAAISSSGGSTYYADSVKGRFTISRDNAKNTVYLQMNSLKPEDTAVYYCVDYYIGYTHNYNYWGQGTQVTVSS"
Response given: low polyreactivity

Challenge: Sample "QVQLVESGGGLVQAAGSLRLICAASGSTFEGNVMGWYRPAPGKERELVAAMSVRGGSTYYADSVKGRFTISRDNAKNTVYLQMNSLKQEDTEDYYCAKKYYRPFWEGDYWGQGTQVTVSS" — what was its polyreactivity (PSR sort gate)?
Response given: low polyreactivity

Challenge: Query (sequence): "QVQLVESGGGLVQAGGSLRLSCAASGIIFSWYSMGWYIEAPGKERELVAAISWSGGRTYYSDSVKGRFTISRDNAKNNVYLQMNSLKPEDTAVYYCAAERNRYSHWEARYYWGQGTQVTVSS" ; field requested: polyreactivity (PSR sort gate)
Response given: high polyreactivity

Challenge: Name the reported polyreactivity (PSR sort gate) value associated with the sequence "QVQLVESWGGVVQAGGSLRLSCAASGRIFQHYAMGWYRQAPGKERELVAAISWRGGSTYYADSVKGRFTISRDNAKNTVFLQMNSLKPEDTAVYYCAAGYRGRIPGFDYWGQGTQVTVSS"
Response given: high polyreactivity

Challenge: Which polyreactivity (PSR sort gate) is listed for "QVQLVESRGFLVQAGGSLRLSCAAYGSSFFTYAMGWYRQAPRKERELVAGINWSGGSTYADSVKGRFTMSRDNAKNTVYLQMNSLKPEDTAVYFCAAKYYSERSRYHYWGQGTQVTVSS" ?
Response given: low polyreactivity

Challenge: Given "QVQLVESGGGLVQAGGSLRLSCAASGSTFYAYTMGWYRKAPGKERELVAGISRRGGTTYYADSVKGRFTISRDNAKNTVYLQMNSLKPEDTAVYYCAADKTKPQASEGYYAYYYWGQGTQVTVSS" , state its recorded polyreactivity (PSR sort gate).
Response given: low polyreactivity

Challenge: Value lookup for polyreactivity (PSR sort gate); key = "QVQLVESGGGLVQAGGSLRLSCAASGLTFYYYYTMGWYRQAPGKERELVAAISRSGSTNYADSVKGRFTISRDNAKNTVYLQMNSLKPEDTAVYYCARSYRSDGSRFGYWGQGTQVTVSS"
Response given: low polyreactivity

Challenge: Quick one: polyreactivity (PSR sort gate) of "QVQLVESGGGLVQAGGSLRLSCAASGSIFSYYAMGWYRQAPGKERELVAAISQNGGSTYYADSVKGRFTISRDNAKNTVYLQMNSLKPEDTAVYYCNAYSVYVRGEYWGQGTQVTVSS" ?
Response given: high polyreactivity

Challenge: Data request, read-out polyreactivity (PSR sort gate), for "QLQLEESGGGLVQAGGSLRLSCAASGSTFSRNAMGWYRQAPGNERELVAAITIRGGSTSYADSVKGRFTISRENAKNTVYLQMNSLKPEDTAVYYCYRQSRNAGGYYWGQGTQVTVSS"
Response given: low polyreactivity

Challenge: Which value of polyreactivity (PSR sort gate) has been reported for "QVQLVESGGGLVQAGGSLRLSCDASGSTFDYYAMGWYRQAPGKERELVAGIDSAGSTNYADSVKGRFTISRDNAKNTVYLQMNSLKTGRYRGLYCNVGKTITTYAFPTFDYCGQGTQVTVSS" in the records?
Response given: low polyreactivity

Challenge: Query (sequence): "QVQLVESGGGLVQAGGSLRLSCAASGRTFGYNAMGWNRQAPGKERELVAAINWSGASTYYADSVKGRFTISRDNAKNTVYFQMNSLKPADTAVYYCAADYSYIYGFDYWGQGTQVTVSS" ; field requested: polyreactivity (PSR sort gate)
Response given: low polyreactivity

Challenge: // query polyreactivity (PSR sort gate) value for entry "QVQLVESGGGLVQAGGSLRLSCAASGSIFGRYAMGWYRQAPGKEREFVSAISSSGGRTYYADSVKGRFPISRDNAKNTVYLQMNSLKPEDTAVYYCATEGYYSRTRLYLEYDYWGQGTQVTVSS"
Response given: high polyreactivity

Challenge: Which polyreactivity (PSR sort gate) is reported for this sequence? "QVQLVESGGGLVQAGGSLRLSCAASGSTFRVYVMGWYRQAPGKERELVAAISQRGGSTYYADSVKGRFTISRDNAKNTVYLQMNSLKPEDTAVYYCAADQPGARTWSNRESDYWGQGTQVTVSS"
Response given: high polyreactivity

Challenge: Name the reported polyreactivity (PSR sort gate) value associated with the sequence "QVQLVESGGGLVQAGGSLRLSCAASGSTFYSYSMGWNRQAPGKERELVAAITKSGGSTYYADSVKGRFTISRDNAKNTVYLQMNSLKPEDTAVYYCAARQGVRMYWGQVTQVTVSS"
Response given: high polyreactivity

Challenge: I am curious: what polyreactivity (PSR sort gate) value has been reported for "QVQLVESGGGLVQAGGSLRLSCAASGRTFAWYAMGWYRQAPGKERELVAAISSGGSTYYADSVKGRFTISRDNAKNTVYLQMNSLKPEDTAVYYCAAEWHYIYAYDSWGQGTQVTVSS" ?
Response given: low polyreactivity

Challenge: For the sequence "QVQLVESGGGLVQAGGSLRLSCAASGNTFIDYAMGWYRQAPGKERELVASITSGGGSTYYADSVKGRFTISRDNAKNTVYLQMNSLKPEDTAVYYCAAERYYSEAIFRSYDYWGQGTQVTVSS" , what polyreactivity (PSR sort gate) is on record?
Response given: low polyreactivity

Challenge: Query: polyreactivity (PSR sort gate); subject: "QVQLVESGGGLVQPGGSLRLSCAASGGTFYRYAMGWYIQAPGKERELVAAISSRGGSTYYADSVKGRYTISRDNAKNTVYLQMNSLKPEDTAVYYCAALFYLTQWQYDYWGQGTQVTVSS"
Response given: high polyreactivity

From: the nanobody polyreactivity screen of Harvey et al. (2022)
